target: Mitogen-activated protein kinase 1 (Homo sapiens); assay: Kinase Assay (New): Compound potency against activated ERK2 is determined using a kinase assay that measures ERK2-catalyzed phosphorylation of biotinylated ERKtide peptide substrate ([Biotin]-AHA-KRELVEPLTPSGEAPNQALLR-[NH2], the peptide sequence derived from EGF receptor: SEQ ID NO:1). The assay is carried out in 50 mM HEPES [pH 7.5], 5 mM MgCl2, 1 mM DTT, 0.01% Tween-20, 0.05% BSA using 0.25 nM ERK2, 200 nM ERKtide peptide and 35 uM ATP (all concentrations are final in the reaction) in a total volume of 10.25 uL. A 16-point, half-log dilution series of compounds at 41x final concentration is used for generating IC50 curves. Compound dilution series are prepared in 100% DMSO. ERK2 is preincubated with compounds for 30 minutes at ambient temperature. Reaction is initiated by addition of a substrate cocktail of ERKtide peptide and ATP and is allowed to proceed for 2-3 hours at ambient temperature. Reaction is terminated by addition of 10 uL of a 2x stop buffer consisting of 100 mM Tris-Cl [pH 7.5], 25 mM EDTA, 0.01% Tween 20, 10 ug/mL of AlphaScreen Protein A Acceptor Beads, 10 ug/mL of Streptavidin Donor Beads (PerkinElmer, Waltham, Mass.), and 1.4 ug/mL phospho-EGF Receptor (Thr669) antibody (Cat #3056, Cell Signaling Technology, Danvers, Mass.). Terminated reactions are read, after overnight incubation in the dark, on an EnVision Multilabel Plate Reader (PerkinElmer, Waltham, Mass.), with excitation and emission wavelengths set to 680 nm and 570 nm, respectively. IC50 values are determined using a four-parameter fit.
Sequence (P28482 whole entry): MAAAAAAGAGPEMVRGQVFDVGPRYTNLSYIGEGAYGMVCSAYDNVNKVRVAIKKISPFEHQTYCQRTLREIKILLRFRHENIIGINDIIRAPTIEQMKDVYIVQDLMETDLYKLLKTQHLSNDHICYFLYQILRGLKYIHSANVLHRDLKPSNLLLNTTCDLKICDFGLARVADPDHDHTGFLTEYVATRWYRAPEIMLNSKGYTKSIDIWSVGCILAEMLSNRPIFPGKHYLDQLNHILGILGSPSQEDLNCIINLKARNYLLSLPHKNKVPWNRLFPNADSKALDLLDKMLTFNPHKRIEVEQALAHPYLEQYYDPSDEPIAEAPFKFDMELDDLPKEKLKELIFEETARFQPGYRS
Please respond with Fulfilled when measured IC50 is strictly beneath 10 nM, and with Not fulfilled in all other cases.

A record lists `CS(=O)(=O)[C@H]1CC[C@H](c2cnc(N)c(-c3ccc(C(=O)NCc4ccccc4)c(F)c3)n2)CC1` . Is its IC50 below 10 nM? Not fulfilled

Find out if reported IC50 for `Nc1ncc(C2CCOCC2)nc1-c1ccc(C(=O)N[C@H](CO)C2CCCCC2)c(F)c1` is less than 10 nM Not fulfilled

Is IC50 strictly under 10 nM for the entry `CC(C)n1cc(-c2cnc(N)c(-c3ccc(C(=O)N[C@H](CO)c4ccccc4)c(F)c3)c2)cn1` ? Fulfilled

Decide: IC50 of `Cc1nn(C)cc1-c1cnc(N)c(-c2ccc(C(=O)N[C@H](CO)c3ccccc3)c(F)c2)c1` strictly below 10 nM? Fulfilled
